test-system: human HSL (Homo sapiens, UniProt Q05469)
Construct: overlapping PCR to generate a full length human HSL ORF with a 3′-His6 tag; His6 (C)
Sequence (Q05469 1-1076): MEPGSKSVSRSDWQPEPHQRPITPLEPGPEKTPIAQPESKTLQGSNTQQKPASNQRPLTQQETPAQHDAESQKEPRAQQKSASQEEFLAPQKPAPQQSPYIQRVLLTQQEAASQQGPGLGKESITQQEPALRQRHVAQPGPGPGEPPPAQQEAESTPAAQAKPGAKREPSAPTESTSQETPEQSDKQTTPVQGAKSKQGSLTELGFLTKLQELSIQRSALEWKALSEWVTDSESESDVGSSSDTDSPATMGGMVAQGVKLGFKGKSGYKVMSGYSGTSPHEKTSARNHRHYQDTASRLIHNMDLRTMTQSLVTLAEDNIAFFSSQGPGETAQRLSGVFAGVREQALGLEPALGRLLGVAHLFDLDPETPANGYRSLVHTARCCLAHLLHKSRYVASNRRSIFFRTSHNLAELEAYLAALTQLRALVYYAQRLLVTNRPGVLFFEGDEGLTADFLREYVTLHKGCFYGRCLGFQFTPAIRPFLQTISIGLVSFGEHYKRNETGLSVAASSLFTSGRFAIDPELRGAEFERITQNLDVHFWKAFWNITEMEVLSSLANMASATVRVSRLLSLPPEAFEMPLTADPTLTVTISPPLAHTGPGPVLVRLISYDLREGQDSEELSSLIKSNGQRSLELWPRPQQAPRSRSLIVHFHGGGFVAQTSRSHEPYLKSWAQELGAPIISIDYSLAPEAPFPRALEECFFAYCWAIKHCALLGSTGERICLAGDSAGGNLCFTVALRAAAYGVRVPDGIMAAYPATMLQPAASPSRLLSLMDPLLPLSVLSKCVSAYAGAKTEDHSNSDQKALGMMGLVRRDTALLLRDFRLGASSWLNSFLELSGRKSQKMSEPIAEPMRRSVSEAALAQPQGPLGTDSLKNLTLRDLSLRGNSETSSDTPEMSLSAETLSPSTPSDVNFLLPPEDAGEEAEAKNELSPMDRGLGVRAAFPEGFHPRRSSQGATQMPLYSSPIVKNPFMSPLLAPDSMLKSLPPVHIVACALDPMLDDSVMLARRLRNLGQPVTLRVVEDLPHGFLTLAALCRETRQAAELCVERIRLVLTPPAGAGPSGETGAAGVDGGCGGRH
test-description: Human hormone-sensitive lipase (HSL) enzyme inhibition assay (colorimetric, DMPT substrate)
test-parameters: human full length HSL-His6; 2,3-dimercapto-1-propanol tributyrate substrate; 37° C., 20 minutes; read-out: HSL hum IC50
readout-type: IC50 (nM)

> print(dat)
                                   compound  test.result
1  COc1ccc(S(=O)(=O)N2CCC(C(=O)Nc3ccc(OC(C)C)cc3)CC2)cc1 [Example 49]           90
2  CC(Oc1ccc(NC(=O)C2(CO)CCN(S(=O)(=O)c3ccccc3Cl)CC2)cc1)C(F)(F)F (racemic) [Example 24]         1140
3  CC1(C(=O)Nc2ccc(OC(C)(C)C(F)(F)F)cc2)CCN(S(=O)(=O)c2ccccc2)CC1 (racemic) [Example 50]          810
4  CC(C)c1ccc(NC(=O)C2CCN(C(=O)CC3CC3)CC2)cc1 [Example 8]          800
5  Cc1ccc(S(=O)(=O)N2CCC(C(=O)Nc3ccc(OC(CO)C(F)(F)F)cc3)CC2)cc1 (racemic) [Example 45]          150
6  Cc1ccc(S(=O)(=O)N2CCC(F)(C(=O)Nc3ccc(C(C)C)cc3)CC2)cc1 [Example 41]          320
7  COC[C@@H]1C[C@@H](C(=O)Nc2ccc(OC(F)(F)F)cc2)CCN1S(=O)(=O)c1ccc(C)cc1 (racemic) [Example 23]          110
